Data provenance is ChEMBL document CHEMBL4118262.

- System tested: UniProt:P31650
- Sequence (P31650 whole entry): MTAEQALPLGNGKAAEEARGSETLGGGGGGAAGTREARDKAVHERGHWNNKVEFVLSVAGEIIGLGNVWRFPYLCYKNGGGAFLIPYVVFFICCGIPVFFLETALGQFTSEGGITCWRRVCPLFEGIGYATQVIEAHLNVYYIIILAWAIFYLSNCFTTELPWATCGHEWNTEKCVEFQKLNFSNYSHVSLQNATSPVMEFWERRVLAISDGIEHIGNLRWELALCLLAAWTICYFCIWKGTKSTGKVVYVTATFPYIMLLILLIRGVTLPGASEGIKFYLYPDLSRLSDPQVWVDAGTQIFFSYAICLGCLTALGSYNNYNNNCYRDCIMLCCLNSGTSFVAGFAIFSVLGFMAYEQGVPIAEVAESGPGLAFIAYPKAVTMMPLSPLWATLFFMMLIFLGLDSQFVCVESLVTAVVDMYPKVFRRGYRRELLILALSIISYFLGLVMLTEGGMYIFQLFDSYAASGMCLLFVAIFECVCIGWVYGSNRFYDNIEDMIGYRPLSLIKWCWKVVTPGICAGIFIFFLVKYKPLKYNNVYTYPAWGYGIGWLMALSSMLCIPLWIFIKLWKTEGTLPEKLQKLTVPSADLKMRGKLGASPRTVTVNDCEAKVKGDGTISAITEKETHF
- Experimental protocol: Inhibition of mouse GAT4 expressed in HEK293 cells assessed as decrease in [3H]GABA uptake preincubated for 25 mins followed by [3H]GABA addition measured after 4 mins by liquid scintillation counting analysis
Endpoint label: log10 IC50 (log10 of the value in µM)

{"columns": ["Compound", "Result number"],
 "data": [
  ["COc1ccc(C(C#CCN2CCCC(C(=O)O)C2)(c2ccc(OC)cc2)c2ccc3sccc3c2)cc1 (racemic)", 1.08],
  ["COc1ccc(C(C#CCN2CCCC(C(=O)O)C2)(Cc2ccccc2)c2ccc(OC)cc2)cc1 (racemic)", 1.62],
  ["COc1ccc(C(CC#CCN2CCCC(C(=O)O)C2)(c2ccc(OC)cc2)c2ccc(OC)cc2)cc1 (racemic)", 1.24],
  ["O=C(O)C1CCCN(CC#CCC(c2ccccc2)(c2ccccc2)c2ccccc2)C1 (racemic)", 1.85],
  ["COc1ccc(CC(C#CCN2CCCC(C(=O)O)C2)(c2ccc(OC)cc2)c2ccc(OC)cc2)cc1 (racemic)", 1.56],
  ["COc1ccc(C(C#CCN2CCCC(C(=O)O)C2)(c2ccc(OC)cc2)c2ccsc2)cc1 (racemic)", 1.54],
  ["COc1ccc(C(OCCN2CCC[C@H](C(=O)O)C2)(c2ccc(OC)cc2)c2ccc(OC)cc2C)cc1", 0.22],
  ["COc1ccc(C(OCCN2CCCC(C(=O)O)C2)(c2ccc(OC)cc2C)c2ccc(OC)cc2C)cc1 (stereo not drawn)", 0.93]
]}

----------
- Test system: betaine/GABA transporter BGT1 (mGAT2, Slc6a12) (Mus musculus)
- Experimental protocol: Inhibition of mouse GAT2 expressed in HEK293 cells assessed as decrease in [3H]GABA uptake at 100 uM preincubated for 25 mins followed by [3H]GABA addition measured after 10 mins by liquid scintillation counting analysis relative to control
- Set-up: scale not given: the % may be the effect or the level left
Entries annotated with measured Activity
Endpoint label: Activity (%)

{"columns": ["Compound", "Result number"],
 "data": [
  ["COc1ccc(C(O)(C#CCN2CCCC(C(=O)O)C2)c2ccc(OC)cc2)cc1 (racemic)", 72],
  ["COc1ccc(C(C#CCN2CCCC(C(=O)O)C2)(c2ccc(OC)cc2)c2nccn2C)cc1 (racemic)", 106],
  ["C=C=C(CN1CCCC(C(=O)O)C1)C(c1ccc(OC)cc1)(c1ccc(OC)cc1)c1ccc(OC)cc1 (racemic)", 77]
]}

----------
Entries annotated with measured Activity
- Test system: betaine/GABA transporter BGT1 (mGAT2, Slc6a12) (Mus musculus)
- Experimental protocol: Inhibition of mouse GAT2 expressed in HEK293 cells assessed as decrease in [3H]GABA uptake at 100 uM preincubated for 25 mins followed by [3H]GABA addition measured after 10 mins by liquid scintillation counting analysis relative to control
- Parameters: scale not given: the % may be the effect or the level left
Endpoint label: Activity (%)

{"columns": ["Compound", "Result number"],
 "data": [
  ["COc1ccc(C(C#CCN2CCCC(C(=O)O)C2)(c2ccc(OC)cc2)c2nccs2)cc1 (racemic)", 84],
  ["COc1ccc(C(C#CCN2CCCC(C(=O)O)C2)(c2ccc(OC)cc2)c2ccsc2)cc1 (racemic)", 70],
  ["COc1ccc(CC(C#CCN2CCCC(C(=O)O)C2)(c2ccc(OC)cc2)c2ccc(OC)cc2)cc1 (racemic)", 53],
  ["COc1ccc(C(C#CCN2CCCC(C(=O)O)C2)c2ccc(OC)cc2)cc1 (racemic)", 80]
]}
